Consider the following compounds; for each one, report its kinase still bound, per cent of control.
# Assayed Target: ANKK1 (human)
# Procedure Details: KINOMEscan competition binding
# Condition Details: compound 10.0 µM
Hi! Could you send only the number? It should be in %, unit omitted.

Per the record, CCN1CCN(Cc2ccc(Nc3ncc4c(n3)N(C)c3ccccc3C(=O)N4C)cc2C(F)(F)F)CC1 has kinase still bound, per cent of control of 18

Form: compound = COc1cc(C(=O)NC2CCN(C)CC2)ccc1Nc1ncc2c(n1)N(C1CCCC1)C(C)CC(=O)N2C (stereo not given) ; kinase still bound, per cent of control = 100

Reported kinase still bound, per cent of control ( Cc1cc([C@@H](C)Nc2ccccc2C(=O)O)c2nc(N3CCOCC3)cc(=O)n2c1 ) = 100

Memo: N#Cc1c(NC(=O)c2cccc3ccccc23)sc2c1CCCC2 , reported kinase still bound, per cent of control: 78

Lab note: C=CC(=O)Nc1cccc(Oc2nc(Nc3ccc(N4CCN(C)CC4)cc3OC)ncc2Cl)c1 gave kinase still bound, per cent of control of 100

For this compound ( Cn1c(=O)n(-c2ccc(C(C)(C)C#N)cc2)c2c3cc(-c4cnc5ccccc5c4)ccc3ncc21 ), measured kinase still bound, per cent of control is 100

For Cc1ccc(C(=O)Nc2cccc(C(F)(F)F)c2)cc1Nc1cncc(C(N)=O)c1 the compound record lists kinase still bound, per cent of control as 100

# kinase still bound, per cent of control of O=C(O)c1ccc(Nc2ncc3c(n2)-c2ccc(Cl)cc2C(c2c(F)cccc2F)=NC3)cc1 = 100

The recorded kinase still bound, per cent of control for entry COc1cc(C(=O)NC2CCN(C)CC2)ccc1Nc1ncc2c(n1)N(C1CCCC1)CCC(=O)N2C(C)C equals 100

Lookup result for CN(C)C/C=C/C(=O)Nc1cccc(Nc2ncc3c(n2)N(C)c2ccccc2C(=O)N3C)c1 ; measured kinase still bound, per cent of control: 6

Lab note: measured kinase still bound, per cent of control of CC[C@@H]1C(=O)N(C)c2cnc(Nc3ccc(C(=O)NC4CCN(C)CC4)cc3OC)nc2N1C1CCCC1 was 100

Cc1ccc(NC(=O)c2cccc(C(C)(C)C#N)c2)cc1Nc1ccc2ncn(C)c(=O)c2c1 yielded kinase still bound, per cent of control of 100

Short answer for OCCCNc1cc(-c2ccnc(Nc3cccc(Cl)c3)n2)ccn1 : kinase still bound, per cent of control was 100

Item: Nc1ccc(-c2ccc3ncc4ccc(=O)n(-c5cccc(C(F)(F)F)c5)c4c3c2)cn1 | kinase still bound, per cent of control: 100

Note to self: kinase still bound, per cent of control recorded for COc1cc(N2CCN(C)CC2)ccc1Nc1nc(N)c(C(=O)c2c(Cl)cccc2Cl)s1 was 96

The recorded kinase still bound, per cent of control for entry CCCS(=O)(=O)Nc1ccc(F)c(C(=O)c2c[nH]c3ncc(-c4ccc(Cl)cc4)cc23)c1F equals 91

Lab book: kinase still bound, per cent of control of CCC(=O)N1CCN(c2ccc(-n3c(=O)ccc4cnc5ccc(-c6cnc7ccccc7c6)cc5c43)cc2C(F)(F)F)CC1 noted as 93

kinase still bound, per cent of control reading for C=CC(=O)Nc1cc(NC(=O)c2ccc(C)c(NC(=O)c3ccno3)c2)cc(C(F)(F)F)c1 : 99

Just so you know, measured kinase still bound, per cent of control for O=C(NOC[C@H](O)CO)c1ccc(F)c(F)c1Nc1ccc(I)cc1F came out at 64

Reported kinase still bound, per cent of control for O=C1Nc2ccc(I)cc2/C1=C/c1cc(Br)c(O)c(Br)c1 was 12

The recorded kinase still bound, per cent of control for entry CCOc1cc2ncc(C#N)c(Nc3ccc(OCc4ccccn4)c(Cl)c3)c2cc1NC(=O)/C=C/CN(C)C equals 100

kinase still bound, per cent of control measured on C=CC(=O)Nc1cccc(Nc2nc(N[C@H]3CC[C@H](N(C)C)CC3)nc3c2ncn3C(C)C)c1 = 62

Cc1ccc2nc(NCCN)c3ncc(C)n3c2c1 yielded kinase still bound, per cent of control of 99

// field: kinase still bound, per cent of control; key: O=C(NC1CC1)c1cccc(-c2ccc3c(NC(=O)C4CC4)n[nH]c3c2)c1 ; value = 8

Please fill in: kinase still bound, per cent of control reported for C[C@@H](Oc1cc(-n2cnc3ccc(CN4CCN(C)CC4)cc32)sc1C(N)=O)c1ccccc1C(F)(F)F = 26
